- Tested on: HT29 colon
- measurement.notes: NCI-60 one-dose screen, 48 h (100 = growth as untreated, 0 = no growth, -100 = all killed)
- setup.conditions: 10 µM unless noted
This is part of a sample that, as a whole, favours compounds with a hit. Of some 83,000 tested, about 20% had one in any assay. The source made the active and inactive calls. How the source made its calls: active means growth percent below 10; inactive means the rest.
Could you please report measured growth for the items listed next?

Please fill in: growth reported for Cc1ccc(C(=O)Nc2cccc(C(=O)NC(=S)Nc3ccc(S(N)(=O)=O)cc3)c2)cc1 = 85.1% (inactive)

Please fill in: growth reported for COc1ccccc1Nc1nnc(-c2c[nH]c3ccccc23)o1 = 7.44% (active)

Please fill in: growth reported for COc1ccc(-n2c(NC(=O)N3CCN(C)CC3)c(C#N)c3ccccc32)cc1 = 84.2% (inactive)

Please fill in: growth reported for COc1ccc(C(=O)c2cc(C(C)=O)c3c(C)cc(C)cn23)cc1 = 72.5% (inactive)

Please fill in: growth reported for O=C(NN1C(=O)/C(=C/C=C/c2ccc([N+](=O)[O-])o2)SC1=S)c1ccc([N+](=O)[O-])cc1 = -80.3% (active)

Please fill in: growth reported for O=C(N/N=C/c1ccoc1)c1[nH]c2ccc(Br)cc2c1-c1ccccc1 = -50.2% (active)

Please fill in: growth reported for S=C(Nc1ccccc1)Nc1ccc(OCc2nc3ccc(Cl)cc3[nH]2)cc1 = 105% (inactive)

Please fill in: growth reported for COc1cc(CNC(=O)C[C@H](C)CCC=C(C)C)ccc1OCc1cn(-c2ccccc2F)nn1 = 97.4% (inactive)

Please fill in: growth reported for CCN(C(=O)CN1C(=O)/C(=C/c2ccco2)SC1=S)C1CCS(=O)(=O)C1 (centres undefined) = 102% (inactive)

Please fill in: growth reported for Cn1cc(-c2cc(N)n3nc(-c4c[nH]c5ccc(Cl)cc45)cc3n2)c2cc(Br)cnc21 = -72% (active)

Please fill in: growth reported for COc1ccc2c(c1)C(Sc1ccc(Br)cc1)c1c(nc(N)c(C#N)c1N)O2 (centres undefined) = 91.1% (inactive)

Please fill in: growth reported for Cc1cn(-c2cc(NC(=O)c3ccc(C)c(-n4cc(-c5cnc6cccnn56)nn4)c3)cc(C(F)(F)F)c2)cn1 = 7.41% (active)

Please fill in: growth reported for CN1C(=O)/C(=C/c2ccco2)S/C1=N/c1nccs1 = 103% (inactive)

Please fill in: growth reported for N/C(=N\c1nc2ccccc2s1)NC(=O)Nc1ccccc1[N+](=O)[O-] = -31.5% (active)

Please fill in: growth reported for O=C1NC(=S)/C(=C/c2cn(-c3ccccc3)nc2-c2ccccc2)S1 = 22.9% (inactive)

Please fill in: growth reported for CCOC(=O)c1ccc(NC(=S)NC(=O)c2ccc(NC(=O)C(C)C)cc2OC)cc1 = 68.2% (inactive)

Please fill in: growth reported for COc1ccc(C(=O)c2c(N)c(C#N)cn2-c2ccc([N+](=O)[O-])cc2)cc1 = 102% (inactive)

Please fill in: growth reported for O=c1ccc(Cn2c(C(F)(F)F)cc3c(Cl)ncnc32)c[nH]1 = 78.1% (inactive)

Please fill in: growth reported for Oc1ccc(Cl)c(Nc2nc(SCCN3CCOCC3)nc3c2cnn3CC(Cl)c2ccc(Br)cc2)c1 (centres undefined) = 6.18% (active)

Please fill in: growth reported for O=C(Cn1c(-c2ccccc2)nc2ccccc21)N=Nc1c(O)[nH]c2ccc(Br)cc12 = -33.1% (active)

Please fill in: growth reported for Clc1ccc(-c2nc3c4c(-c5ccccc5)c(-c5ccccc5)n(Cc5ccccc5)c4ncn3n2)cc1 = -2% (active)

Please fill in: growth reported for CN1C(=O)C2(C(C#N)=C(c3ccc(Cl)cc3)Nc3c2c(-c2ccccc2)nn3-c2ccccc2)c2ccccc21 (centres undefined) = 85.2% (inactive)

Please fill in: growth reported for Cc1nn(-c2ccccc2)c2ncn(CC(=O)N/N=C/c3ccccc3O)c(=O)c12 = 28.2% (inactive)

Please fill in: growth reported for COc1ccc(/C=C/C(=O)c2ccc(S(=O)(=O)NCCNc3nc(N(C)C)nc(N4CCOCC4)n3)cc2)cc1 = 81.1% (inactive)

Please fill in: growth reported for O=C1Nc2ccccc2/C1=C/C(=O)c1cc2ccccc2oc1=O = 110% (inactive)

Please fill in: growth reported for O=C(Nc1ccc(-c2ccc3c(c2)NC(=O)/C3=C\c2ccc[nH]2)cc1)Nc1cccc(Cl)c1 = -61.5% (active)

Please fill in: growth reported for COc1ccc2[nH]c(=O)c(CSc3ccccc3Nc3nccc(-c4ccc5c(c4)OCO5)n3)cc2c1 = 75.2% (inactive)

Please fill in: growth reported for CCCCNC(=S)Nc1ccc(OCc2nc3ccc(Cl)cc3[nH]2)cc1 = 28.4% (inactive)

Please fill in: growth reported for COc1c(B(O)O)cc(F)cc1-c1nc2c(F)cc3[nH]ncc3c2c2c1CCCC2 = 21.1% (inactive)

Please fill in: growth reported for CNc1nc2ccccc2n2c(-c3ccc(O)c(O)c3)cnc12 = 2.27% (active)

Please fill in: growth reported for N/C(=N\c1nc2ccc([N+](=O)[O-])cc2s1)NC(=O)Nc1ccccc1Cl = 62.1% (inactive)

Please fill in: growth reported for O=C(N=Nc1c(O)[nH]c2ccc(Cl)cc12)c1ccc2nc(-c3ccc(Cl)cc3)[nH]c2c1 = 16.9% (inactive)

Please fill in: growth reported for O=S(=O)(c1nc(-c2ccc(Br)cc2)oc1-c1ccc(Cl)cc1)N1CCCC(O)C1 (centres undefined) = 11.2% (inactive)

Please fill in: growth reported for Nc1cc2ccccc2c(=O)n1NC(=O)c1ccc(Br)cc1 = 118% (inactive)

Please fill in: growth reported for COc1c2c(cc3c1C(CCc1ccccc1)N(C)CC3)OCO2 (centres undefined) = -13.3% (active)

Please fill in: growth reported for CCCCCCCCc1ccc(C(=O)Nc2ccc(C)c(OP(=O)(O)O)c2)cc1 = 106% (inactive)

Please fill in: growth reported for Nc1nn2c(-c3cc4cc(Br)ccc4oc3=O)ccnc2c1N=Nc1ccc(Br)cc1 = 28.8% (inactive)

Please fill in: growth reported for Cc1ccc(C(=O)Nc2cc(-n3ccnc3)cc(C(F)(F)F)c2)cc1-n1cc(-c2cnc3cccnn23)nn1 = 39.2% (inactive)

Please fill in: growth reported for Cc1ccc(C(C)C)cc1Oc1cccc(-c2c(-c3ccc(C(F)(F)F)cc3)ncn2C2CCNCC2)n1 = -92.1% (active)
